Counter-ions that a name gives are not always drawn.

[
  {
    "compound": "O=C(O)c1ccc(C(=O)O)cc1 [terephthalic acid]",
    "flash point, °C": 260.00
  },
  {
    "compound": "COS(=O)(=O)OC [dimethyl sulfate]",
    "flash point, °C": 83.00
  },
  {
    "compound": "CCCCCCl [1-chloropentane]",
    "flash point, °C": 1.00
  },
  {
    "compound": "CCCCCCCCCc1ccc(O)c(CCCCCCCCC)c1 [2,4-di(nonyl)phenol]",
    "flash point, °C": 127.00
  },
  {
    "compound": "c1ccc(COCc2ccccc2)cc1 [phenylmethoxymethylbenzene]",
    "flash point, °C": 135.00
  },
  {
    "compound": "CCSCC [ethylsulfanylethane]",
    "flash point, °C": -10.00
  },
  {
    "compound": "C#CCN1CC(=O)N(COC(=O)C2C(C=C(C)C)C2(C)C)C1=O (stereo not given)",
    "flash point, °C": 110.00
  },
  {
    "compound": "CCOCCOCC [1,2-diethoxyethane]",
    "flash point, °C": 35.00
  },
  {
    "compound": "C=CC(C)(CCC=C(C)C)OC(C)=O (stereo not given) [3,7-dimethylocta-1,6-dien-3-yl acetate]",
    "flash point, °C": 94.00
  },
  {
    "compound": "CCCCOC(=O)[C@@H](C)Oc1ccc(Oc2ccc(C#N)cc2F)cc1 [butyl (2R)-2-[4-(4-cyano-2-fluorophenoxy)phenoxy]propanoate]",
    "flash point, °C": 122.00
  }
]

* * *

Consider the following partition of reported flash point into named classes: low = under 50 °C, mid = from 50 °C up to 100 °C, high = 100 °C and over

[
  {
    "molecule": "c1ccc(Cc2ccccc2)cc1",
    "cat": "high"
  },
  {
    "molecule": "CCCCCCCCCc1ccccc1O",
    "cat": "high"
  },
  {
    "molecule": "CC(=O)OC(C)C [iso-Propyl acetate]",
    "cat": "low"
  },
  {
    "molecule": "COc1ccc(O)cc1 [Hydroquinone monomethyl ether]",
    "cat": "high"
  },
  {
    "molecule": "C1CCCC1",
    "cat": "low"
  },
  {
    "molecule": "Oc1ccccc1-c1ccccc1",
    "cat": "high"
  },
  {
    "molecule": "C=C(Cl)Cl [Vinylidene chloride]",
    "cat": "low"
  },
  {
    "molecule": "OCCCCCO",
    "cat": "high"
  },
  {
    "molecule": "CC(=O)OC(C)=O [Acetic anhydride]",
    "cat": "mid"
  },
  {
    "molecule": "CC(O)C(C)O (stereo not drawn)",
    "cat": "mid"
  },
  {
    "molecule": "Clc1ccccc1Cl",
    "cat": "mid"
  },
  {
    "molecule": "CC(=O)CC(C)=O",
    "cat": "low"
  }
]

* * *

[
  {
    "compound": "Nc1ccncc1",
    "flash point": "164.00 °C"
  },
  {
    "compound": "CCCCCNCCCCC",
    "flash point": "51.00 °C"
  },
  {
    "compound": "C1CC2OC2CC1C1CO1 (stereo not given) [3-(oxiran-2-yl)-7-oxabicyclo[4.1.0]heptane]",
    "flash point": "110.00 °C"
  },
  {
    "compound": "O=C/C=C/c1ccccc1 [(E)-3-phenylprop-2-enal]",
    "flash point": "71.00 °C"
  },
  {
    "compound": "CC(C)COC(=O)c1ccccc1C(=O)OCC(C)C [bis(2-methylpropyl) benzene-1,2-dicarboxylate]",
    "flash point": "196.00 °C"
  },
  {
    "compound": "COCOC",
    "flash point": "-18.00 °C"
  },
  {
    "compound": "CC(C)C(=O)O.CC(C)C(O)C(C)(C)CO (stereo not given)",
    "flash point": "120.00 °C"
  },
  {
    "compound": "CCc1ccc(CC)cc1",
    "flash point": "56.00 °C"
  },
  {
    "compound": "CCC1CCCCC1",
    "flash point": "35.00 °C"
  },
  {
    "compound": "O=[N+]([O-])c1ccccc1O",
    "flash point": "108.00 °C"
  },
  {
    "compound": "Cc1cc(-c2ccc(N)c(C)c2)ccc1N",
    "flash point": "244.00 °C"
  },
  {
    "compound": "ClC(Cl)(Cl)C1CO1 (stereo not given)",
    "flash point": "67.00 °C"
  },
  {
    "compound": "CC1CCC2CC1C2(C)C (stereo not given) [2,6,6-trimethylbicyclo[3.1.1]heptane]",
    "flash point": "40.00 °C"
  },
  {
    "compound": "CC(O)C(C)O (stereo not given)",
    "flash point": "85.00 °C"
  },
  {
    "compound": "CN1CCC[C@H]1c1cccnc1 [3-[(2S)-1-methylpyrrolidin-2-yl]pyridine]",
    "flash point": "95.00 °C"
  },
  {
    "compound": "CCOS(=O)(=O)c1ccc(C)cc1 [ethyl 4-methylbenzenesulfonate]",
    "flash point": "158.00 °C"
  },
  {
    "compound": "OC[C@@H](O)[C@@H](O)[C@H](O)[C@@H](O)CO [(2R,3R,4R,5S)-hexane-1,2,3,4,5,6-hexol]",
    "flash point": "283.00 °C"
  },
  {
    "compound": "C[CH2][Al]([Cl])[CH2]C.C[CH2][Al]([Cl])[Cl] [chloro(diethyl)alumane;dichloro(ethyl)alumane]",
    "flash point": "-20.00 °C"
  },
  {
    "compound": "CNC(=O)CSP(=S)(OC)OC [2-dimethoxyphosphinothioylsulfanyl-N-methylacetamide]",
    "flash point": "51.00 °C"
  },
  {
    "compound": "CN(C)C#N [dimethylcyanamide]",
    "flash point": "71.00 °C"
  }
]

* * *

So basically: flash point at 30 °C or higher? That is true (1). Lower than 30 °C? That is false (0).

[
  {
    "chemicalStructure": "CC[Si](OC)(OC)OC",
    "cat": "false (0)"
  },
  {
    "chemicalStructure": "CCCCCCC[Si](C)(Cl)Cl",
    "cat": "true (1)"
  },
  {
    "chemicalStructure": "C[Si]1(C)N[Si](C)(C)N[Si](C)(C)N[Si](C)(C)N1",
    "cat": "true (1)"
  },
  {
    "chemicalStructure": "C=CO[Si](C)(C)C",
    "cat": "false (0)"
  },
  {
    "chemicalStructure": "CCCCCCCC[Si](OCC)(OCC)OCC",
    "cat": "true (1)"
  },
  {
    "chemicalStructure": "C=CC[Si](C)(C)C",
    "cat": "false (0)"
  },
  {
    "chemicalStructure": "CC[SiH](CC)CC",
    "cat": "false (0)"
  },
  {
    "chemicalStructure": "C[Si](C)(C)O[Si](C)(C)O[Si](C)(C)O[Si](C)(C)C",
    "cat": "true (1)"
  },
  {
    "chemicalStructure": "CC[Si](CC)(CC)N(C)C",
    "cat": "false (0)"
  },
  {
    "chemicalStructure": "C[SiH](C)C(C)(C)C",
    "cat": "false (0)"
  }
]

* * *

Answer False if flash point is under 4 °C, and True if it is 4 °C or more.

[
  {
    "compound": "CCCC=O [butyraldehyde]",
    "cat": "False"
  },
  {
    "compound": "CCN(C)CC [N,N-diethylmethylamine]",
    "cat": "False"
  },
  {
    "compound": "CC(=O)CC(C)=O [2,4-pentanedione]",
    "cat": "True"
  },
  {
    "compound": "CCN [ethylamine]",
    "cat": "False"
  }
]

* * *

Where a name gives a salt, the structure may show the parent alone.
Each item that follows carries a reported flash point.
experimentalEndpoint: flash point (°C)

[
  {
    "compound": "CCCCC(CC)COP(=O)(O)OCC(CC)CCCC (stereo unspecified) [bis(2-ethylhexyl) hydrogen phosphate]",
    "experimentalValue": 196.00
  },
  {
    "compound": "CN(C)CCOCCN(C)C [2-[2-(dimethylamino)ethoxy]-N,N-dimethylethanamine]",
    "experimentalValue": 79.00
  },
  {
    "compound": "CCCCC(=O)CCCC",
    "experimentalValue": 60.00
  },
  {
    "compound": "CCC1CCC(CCC(=O)O)C1 (stereo unspecified)",
    "experimentalValue": 101.00
  },
  {
    "compound": "CSCCC=O",
    "experimentalValue": 61.00
  },
  {
    "compound": "C=CCCCCCCCCCCCC",
    "experimentalValue": 110.00
  },
  {
    "compound": "CC(O)CC=O (stereo unspecified) [3-hydroxybutanal]",
    "experimentalValue": 66.00
  },
  {
    "compound": "C=C(C#N)C(=O)OC [methyl 2-cyanoprop-2-enoate]",
    "experimentalValue": 79.00
  },
  {
    "compound": "Clc1cccc(-c2cc(Cl)cc(Cl)c2)c1",
    "experimentalValue": 141.00
  },
  {
    "compound": "CCC[CH2][Sn]([Cl])([Cl])[Cl]",
    "experimentalValue": 81.00
  },
  {
    "compound": "O=C1CCc2ccccc2O1 [3,4-dihydrochromen-2-one]",
    "experimentalValue": 130.00
  },
  {
    "compound": "OCC(Cl)CCl (stereo unspecified)",
    "experimentalValue": 91.00
  },
  {
    "compound": "CCCCCCCCCCCCCCCCCCO",
    "experimentalValue": 200.00
  },
  {
    "compound": "CN(C)Cc1cc(CN(C)C)c(O)c(CN(C)C)c1 [2,4,6-tris[(dimethylamino)methyl]phenol]",
    "experimentalValue": 124.00
  },
  {
    "compound": "CCc1ccc2ccccc2c1",
    "experimentalValue": 104.00
  },
  {
    "compound": "CC1=CC(=O)CC(C)(C)C1",
    "experimentalValue": 84.00
  },
  {
    "compound": "CCCOC=O [propyl formate]",
    "experimentalValue": -3.00
  },
  {
    "compound": "N#CCCCl",
    "experimentalValue": 76.00
  },
  {
    "compound": "CCCCCCCCCCCC(=O)[O][Sn]([CH2]CCC)([CH2]CCC)[O]C(=O)CCCCCCCCCCC [[dibutyl(dodecanoyloxy)stannyl] dodecanoate]",
    "experimentalValue": 235.00
  },
  {
    "compound": "CCCCCOC(=O)CCC [pentyl butanoate]",
    "experimentalValue": 57.00
  },
  {
    "compound": "CC(O)CCO (stereo unspecified)",
    "experimentalValue": 121.00
  }
]

Cited source: a flash point compilation (Sun et al. 2020)
